# testDescription: inhibition of 3D7 malaria parasite growth – strain 3D7 (AID 2306);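 further: 0% = DMSO wells and 100% = chloroquine plus artemisinin control wells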
# details: P. falciparum 3D7 erythrocytic growth, LDH absorbance, 72 h; at 2 µM; hits give high values
Activity calls are given as the source filed them. How the calls were made is not given here.
recordedMetric: growth inhibition

Q) Look up growth inhibition: `CN1CCN(CCCN(Cc2ccc(-c3cccc(CNCc4ccc5c(c4)OCO5)c3)cc2)C(=O)NCCc2ccccc2)CC1`
A) 98% (active)

Q) Please give the result for `Cc1csc2nc(-c3ccccn3)nc(Nc3ccc4ncsc4c3)c12` too.
A) 85% (active)

Q) Please give the result for `Cc1ccc(NC(=O)c2ccc3ncccc3c2)cc1OC1CCN(CCC(C)C)CC1` too.
A) 94% (active)
